target: Bn-VAKGL pentapeptide of filamin A (FLNA) (Homo sapiens, UniProt P21333); assay: FITC-NLX-based FLNA screening assay (FLNA peptide binding assay); conditions: 1 μM compound, 10 nM FITC-NLX
Below, each entry is listed alongside its reported Percent inhibition of FITC-NLX binding, 1 μM.
Just the number in %, nothing appended.

MOLECULE | TESTED_TARGET | UNIT_STRING | RESULT_NUMBER
COc1c2c(cc3c1C(CC(O)CCc1ccccc1)[N+](C)(C)CC3)OCO2 (stereo not drawn) [B0052] | Bn-VAKGL pentapeptide of filamin A (FLNA) (Homo sapiens, UniProt P21333) | % | 44.3
COc1ccc(C(=O)CC2c3c(cc4c(c3OC)OCO4)CC[N+]2(C)C)c(F)c1.[I-] (stereo not drawn) [B0027] | Bn-VAKGL pentapeptide of filamin A (FLNA) (Homo sapiens, UniProt P21333) | % | 49.8
COc1c2c(cc3c1C(CC(=O)CCc1ccc(O)cc1)[N+](C)(C)CC3)OCO2.[I-] (stereo not drawn) [B0028] | Bn-VAKGL pentapeptide of filamin A (FLNA) (Homo sapiens, UniProt P21333) | % | 49.1
COc1c2c(cc3c1C(CC(=O)Cc1ccccc1C)[N+](C)(C)CC3)OCO2 (stereo not drawn) [B0031] | Bn-VAKGL pentapeptide of filamin A (FLNA) (Homo sapiens, UniProt P21333) | % | 50.5
COc1c2c(cc3c1C(CC(=O)/C=C/c1ccc(Cl)cc1)[N+](C)(C)CC3)OCO2 (stereo not drawn) [B0019] | Bn-VAKGL pentapeptide of filamin A (FLNA) (Homo sapiens, UniProt P21333) | % | 49.0
COc1c2c(cc3c1C(CC(=O)Cc1ccccc1Cl)[N+](C)(C)CC3)OCO2.[I-] (stereo not drawn) [B0039] | Bn-VAKGL pentapeptide of filamin A (FLNA) (Homo sapiens, UniProt P21333) | % | 50.9

Exercise: Param item = COCOc1ccc(C(=O)CC2c3c(cc4c(c3OC)OCO4)CC[N+]2(C)C)cc1C.[I-] (stereo not drawn) [B0041] ; retrieve measured Percent inhibition of FITC-NLX binding, 1 μM.
Key: 52.8

Exercise: Proceed to COc1ccc(CC(=O)CC2c3c(cc4c(c3OC)OCO4)CC[N+]2(C)C)c(OC)c1 (stereo not drawn) [B0029]
Key: 50.2

Exercise: Moving on to the next molecule: COc1ccc(CCC(O)CC2c3c(cc4c(c3OC)OCO4)CC[N+]2(C)C)cc1 (stereo not drawn) [B0049]
Key: 47.1

Exercise: Item: COc1ccc(CCC(=O)CC2c3c(cc4c(c3OC)OCO4)CC[N+]2(C)C)cc1OC.[I-] (stereo not drawn) [B0042]
Key: 51.6

Exercise: Also, COc1cc(CC(=O)CC2c3c(cc4c(c3OC)OCO4)CC[N+]2(C)C)cc(OC)c1OC (stereo not drawn) [B0008] please.
Key: 52.8
